Tested on: RAW-Dual (murine macrophage reporter line)
Experiment: IRF reporter (Lucia luciferase) activity fold change vs agonist alone; higher = enhanced IRF activity
Details: modulator concentration 10 µM; agonist: LPS 0.1 ug/mL

molecule	IRF reporter
CC(=O)N1N=C(c2ccc(N(C)C)cc2)CC1c1ccccc1 (stereo unspecified)	1.01
COc1ccc(C(=O)ON=C(N)c2ccc(OC)c(OC)c2)cc1OC	1.1
CNc1ncnc2c1ncn2[C@@H]1O[C@H](CO)[C@@H](O)[C@H]1O [Prestw-338]	1.25
CN1C(C(=O)Nc2ccccn2)=C(O)c2sc(Cl)cc2S1(=O)=O	1.43
O=C(NCC(O)c1ccc(C(F)(F)F)cc1)c1cc(Br)cs1 (stereo unspecified)	1.21
COC(=O)C1=CN(CC2CCCO2)C=C(C(=O)OC)C1c1ccccc1Br (stereo unspecified)	1.18

====

Test system: RAW-Dual (murine macrophage reporter line)
Experiment: NF-kB reporter (SEAP) activity fold change vs agonist alone; higher = enhanced NF-kB activity
Conditions: modulator concentration 10 µM; agonist: CpG ODN 1826 0.5 ug/mL

molecule	NF-kB reporter
CCOc1ccc(CN2CCN(c3cc(C)nc4c5c(C)cc(C)nc5nn34)CC2)cc1	0.944
Cc1cc(-n2cc(C(=O)N3CCOCC3)nn2)ccc1F	1.06
O=C(O)c1ccc(NCn2nnc3ccccc32)cc1	1.05
COc1ccc(OC)c(NC(=O)COc2cccc3c2OC(C)(C)C3)c1	0.489
COc1ccccc1-n1ncc2c(C)nnc(SCC(=O)NCc3ccccc3Cl)c21	0.739
CNCC[C@H](Oc1cccc2ccccc12)c1cccs1	0.087
CCC(Oc1ccccc1)C(=O)Nc1cc([N+](=O)[O-])ccc1C (stereo not drawn)	0.91
CCn1c(=O)c2c(nc(/C=C/c3ccc(OC)c(OC)c3)n2C)n(CC)c1=O	1.56
O=C(O[C@@H]1C[C@@H]2C[C@@H]3C[C@H](C1)N2CC3=O)c1c[nH]c2ccccc12 [Prestw-1510]	0.575
Cn1ccc(C(=O)Nc2nc(C(C)(C)C)cs2)n1	0.805
COCCN1CCC(NC(=O)c2cccc3ccccc23)CC1	1.16
COc1ccc2ccccc2c1C=C1SC(=S)N(CC(=O)O)C1=O	1.05
Cc1ccc(C)c(Cc2cc([N+](=O)[O-])ccc2C)c1	0.287
O=C(NCCc1cn2ccccc2n1)c1ccccc1Br	0.964
Cc1cnc2c(c1N1CCC(Cc3ccccc3)CC1)c(=O)n(C)c(=O)n2C	0.97
CCOc1ccc2nc(N(CCCN(C)C)C(=O)c3ccc(Br)s3)sc2c1.Cl	0.164
CCN(CC)c1ccc(NC(=O)C(C)(C)C)cc1	0.969
COc1ncc(-c2ccc3nccc(-c4ccnnc4)c3c2)cc1NS(=O)(=O)c1ccc(F)cc1F	1.56
N[C@@H]1CONC1=O	0.988
COC(C)(CNC(=O)CSc1ccc(F)cc1)c1cccc(Cl)c1 (stereo not drawn)	1.11
Clc1ccc(-c2nc(N3CCCCC3)nc3ccccc23)cc1	0.444
Clc1ccccc1C1Nc2cccc3cccc(c23)N1	1.04
O=C(Nc1c(Cl)cncc1Cl)c1ccc(OC(F)F)c(OCC2CC2)c1	2.48

====

System: RAW-Dual (murine macrophage reporter line)
Assay: NF-kB reporter (SEAP) activity fold change vs agonist alone; higher = enhanced NF-kB activity
Settings: modulator concentration 10 µM; agonist: LPS 0.1 ug/mL

molecule	NF-kB reporter
Cc1cc(C(O)CNC(=O)c2ccc(C(F)(F)F)nc2)c(C)o1 (centres undefined)	1.05
CN(C(=NS(=O)(=O)c1ccccc1)c1ccccc1)c1ccc(O)cc1	1.39
CCOc1ccc(CN(CCc2ccc3c(c2)OCO3)Cc2cccc3ccccc23)cc1	0.888
N#CC(=Cc1cn(Cc2ccccc2Cl)c2ccccc12)c1nn(CCO)c(N)c1C#N	0.959
O=C(COc1ccccc1)N1CCCC1Cn1nccn1 (centres undefined)	0.951
CN1CCC(OC(c2ccccc2)c2ccccc2)CC1.Cl	1.17
CCN(CC)c1ccc(-c2noc(CN3CCSCC3)n2)cn1	1.15
O=C1CCCc2[nH]ccc21	1.03
COc1cc2nccc(Oc3ccc(NC(=O)C4(C(=O)Nc5ccc(F)cc5)CC4)cc3)c2cc1OC.O=C(O)C[C@H](O)C(=O)O	0.51
CNCC[C@@H](Oc1cccc2ccccc12)c1cccs1	0.98
Cn1cc(-c2cc(CNC(=O)c3cncc(Br)c3)ccn2)cn1	1.05
CC(C(=O)O)c1ccc2c(c1)Cc1cccnc1O2 (centres undefined)	1.41
CNc1nc(Nc2ccc(C)c(C)c2)c2nccnc2n1	1.03
COc1ccc(S(=O)(=O)NC(C)C)c2ccccc12	0.942
CC#CC(=O)Nc1ccc(N2CCOCC2=O)c(C)c1	1.01
COC(=O)NN=Cc1cccs1	1.05
CN1CCC(COc2cnc(-c3cccc(Cn4nc(-c5cccc(C#N)c5)ccc4=O)c3)nc2)CC1	1
Cc1cccc(C(=O)N2CCCC(c3nnc(CC(C)(C)C)o3)C2)c1 (centres undefined)	0.942
O=C(OCCN1CCOCC1)c1ccc(O)cc1O	1.06
COc1cccc2c1C(=O)c1c(O)c3c(c(O)c1C2=O)C[C@@](O)(C(=O)CO)C[C@@H]3O[C@H]1C[C@H](N)[C@H](O)[C@H](C)O1.Cl	0.0784
COc1ccccc1OCCNCC(O)COc1cccc2[nH]c3ccccc3c12 (centres undefined)	0.894
Nc1nccs1	1.22
CCS(=O)(=O)N1CC(CC#N)(n2cc(-c3ncnc4[nH]ccc34)cn2)C1	1.13
COc1ccc2c(c1)c(CC(=O)OCC(=O)O)c(C)n2C(=O)c1ccc(Cl)cc1	1.06
COc1ccc(N2C(=O)C(=Cc3ccc([N+](=O)[O-])s3)SC2=S)cc1	1.55
O=C(O)C1C(c2ccccc2)C(C(=O)OCc2ccccc2)C1c1ccccc1 (centres undefined)	1.09
COc1ccc(OC)c(S(=O)(=O)NCC2CC(=O)N(c3ccc(Cl)cc3)C2)c1 (centres undefined)	0.968
Cc1oncc1CNC(=O)c1ccc(C(C)(C)C)cc1	1.1
O=S(=O)(NCc1ccc(-c2cccnc2)nc1)c1ccc(OC(F)(F)F)cc1	1.01
NC(=O)[C@@H](CCC(F)(F)F)N(Cc1ccc(-c2ncon2)cc1F)S(=O)(=O)c1ccc(Cl)cc1	1.04
COc1cc2c(cc1OC)CC(=O)N(CCCN(C)C[C@H]1Cc3cc(OC)c(OC)cc31)CC2.Cl	0.855
O=C(NN=Cc1c(O)ccc2ccccc12)c1ccccc1I	1.11
CC(=O)Nc1ccc(NC(=S)NC(=O)C=Cc2ccc(Cl)cc2Cl)cc1	0.741
Cc1ccc(C(=O)C(C)CN2CCCCC2)cc1.Cl (centres undefined)	1.05
C=CC(=O)Nc1cccc(Oc2nc(Nc3ccc(N4CCN(C)CC4)cc3)nc3ccsc23)c1	0.0574
Cc1cc(OCC(=O)Nc2ccccc2-c2ccccc2)ccc1Br	0.888
COc1cc2nc(N3CCN(C(=O)C4CCCO4)CC3)nc(N)c2cc1OC.Cl.O.O (centres undefined)	0.937
Cc1cc(=O)n(-c2ccccc2)n1C	1.02
OCC(CO)N[C@H]1C[C@](O)(CO)[C@@H](O)[C@H](O)[C@H]1O	0.924
Oc1c2c(nc3cc(-c4ccc(Cl)cc4)nn13)CCS2	0.945
CC(Nc1ccc(N)cc1)=C1C(=O)c2ccccc2C1=O	0.855
COc1ccc(-c2cc3nc(C)cc(NCCN4CCOCC4)n3n2)cc1OC	0.962
Nc1ccn(C[C@@H](CO)OCP(=O)(O)O)c(=O)n1	0.97
COC(=O)C1=C(C)NC(C)=C(C(=O)OC)C1c1ccccc1[N+](=O)[O-]	1.33

====

System: RAW-Dual (murine macrophage reporter line)
Assay: viability score (confluency relative to resting cells, overnight) (fraction); higher = more viable, active = viable (0.7 or more)
Details: modulator concentration 10 µM
endpointLabel: viability score

molecule	endpointLabel	testResult
O=[N+]([O-])c1ccc(CN2c3ccccc3C3=C(CCCC3)C23CCCCC3)cc1	viability score	1.03
CC#CC(=O)Nc1ccc(N2CCOCC2=O)c(C)c1	viability score	1.01
CCOC(=O)C1=C(CC)OC(N)=C(C#N)C1c1cccc(Oc2ccc(Cl)cc2)c1 (configuration not stated)	viability score	0.972
CC(=O)OC1(C(C)=O)CCC2C3C=C(C)C4=CC(=O)CCC4(C)C3CCC21C (configuration not stated)	viability score	0.995
CC1CCC2C(C)(CO)C(O)CCC2(C)C12CCC(CO)(CCO)O2 (configuration not stated)	viability score	1
CNCC[C@H](Oc1cccc2ccccc12)c1cccs1.Cl	viability score	0.323
CCCOc1cccc(C(=O)Nc2scc(-c3ccccc3Cl)c2C(=O)OC)c1	viability score	1
COc1ccc(C(=O)Nc2sc3c(c2C(N)=O)CCCC3)cc1OC	viability score	0.998
CCOc1ccc2nc(N(CCCN(C)C)C(=O)c3ccc(Br)s3)sc2c1.Cl	viability score	0.0434
CN(C)CC(c1ccc(O)cc1)C1(O)CCCCC1.O=C(O)CCC(=O)O (configuration not stated)	viability score	0.633
O=C(Cn1cnc(-c2ccc(F)cc2)cc1=O)N1CCOCC1	viability score	0.99
O=C(C=Cc1cccnc1)c1cc2ccc1CCc1ccc(cc1)CC2	viability score	1.01
Cc1cc(C)n2nc(C(=O)NN=Cc3ccc(N(C)C)cc3)nc2n1	viability score	1.01
CCCC(=O)Nc1ccc(OCC(O)CNC(C)C)c(C(C)=O)c1.Cl (configuration not stated)	viability score	0.999
CC(C(=O)O)c1ccc2c(c1)Cc1cccnc1O2 (configuration not stated)	viability score	0.985
NCCCCC(NC(CCc1ccccc1)C(=O)O)C(=O)N1CCCC1C(=O)O (configuration not stated)	viability score	0.998
COC(=O)c1cccc(Nc2nc(C=Cc3ccccc3)nc3ccccc23)c1	viability score	0.851
COc1ccc(CNc2oc(-c3ccc(COc4ccccc4C)o3)nc2C#N)cc1	viability score	0.934
Cl.O=C1c2cccc3c2C(CCC3)CN1C1CN2CCC1CC2 (configuration not stated)	viability score	0.987
O=C(NNC(=O)c1sc2cc(F)ccc2c1Cl)Nc1ccc(Cl)cc1	viability score	1
Clc1ccc(Cn2c(CN3CCCC3)nc3ccccc32)cc1	viability score	0.787
CC12CC3CC(C)(C1)CC(CNC(=O)c1ccc([N+](=O)[O-])cc1)(C3)C2	viability score	1
